experimentalDetails: Quantitative highthroughput screen to assess conditional lethalithy of P12 Ichikawa cells grown in RPMI1640 with untreated serum (RPMI+s) (AID 1963881); also: nearly all actives have a fitted effect of over 35% in size; also: potency is read from the fitted curve at half-maximal effect
assayConditions: ATP luminescence, 48 h; viability; series mostly up to 45.8 µM
Description: Assay Provider: Jason Cantor Ph.D. Department of Biochemistry University of Wisconsin-Madison, Madison, WI, USA Chemical screening studies have identified drug sensitivities across hundreds of cancer cell lines but most putative therapeutics fail to translate. […] Sets of conditional anticancer compounds spanned phases of clinical development and included non-oncology drugs were assessed. […] 6; Detection; Luminescence, Viewlux PerkinElmer. […]
Records with an inconclusive call do not appear. Activity calls are given as the source filed them. Calls follow the shape of the dose curve; as a rule, active = well fitted cell-killing curve with a large enough effect; inconclusive = small, poorly fitted or top-dose-only effect; inactive = flat fitted curve, though single readings scatter. Bridge positions count the residues as written; N and C are the ends. Square brackets hold non-standard residues; d marks the D form. Peptide text beside a SMILES is read from it. * marks the point of attachment. ξ: configuration not given here. Octanoyl(6-Me) = CCC(C)CCCCC(=O)*; ξThr(3R) = C[C@@H](O)C(N)C(=O)O; dDab = NCC[C@@H](N)C(=O)O; Dab = NCC[C@H](N)C(=O)O
quantity: Potency

INSERT INTO measurements (compound, datavalue) VALUES
  ('COc1cc(C=CC(=O)O)ccc1O', 'inactive'),
  ('CNC(=O)[C@H](Cc1ccccc1)NC(=O)[C@H](CC(C)C)[C@H](CSc1cccs1)C(=O)NO', '9.35 µM (active)'),
  ('O=C(c1ccc(Nc2nccc(-c3cc4ccccc4s3)n2)cc1)N1CCC(N2CCCC2)CC1', '23.5 µM (active)'),
  ('CC(c1cc2ccccc2s1)N(O)C(N)=O (stereo unspecified)', 'inactive'),
  ('COc1ccc(C(=O)CC(=O)c2ccc(C(C)(C)C)cc2)cc1', 'inactive'),
  ('Cc1ccccc1C(OCCN(C)C)c1ccccc1 (stereo unspecified)', 'inactive'),
  ('CCOC(=O)C1=C[C@@H](OC(CC)CC)[C@H](NC(C)=O)[C@@H](N)C1', 'inactive'),
  ('C[C@@H]1[C@H](C)CC[C@]2(C(=O)O)CC[C@]3(C)C(=CC[C@@H]4[C@@]5(C)CC[C@H](O)C(C)(C)[C@H]5CC[C@]43C)[C@@H]12', 'inactive'),
  ('O=C(C=Cc1cccnc1)NCCCCC1CCN(C(=O)c2ccccc2)CC1', '0.0047 µM (active)'),
  ('CCCOc1ccc(C(=O)OCCN(CC)CC)cc1N', 'inactive'),
  ('COc1ccc2cc3[n+](cc2c1OC)CCc1cc2c(cc1-3)OCO2', '18.7 µM (active)'),
  ('O=C1c2c(O)ccc(O)c2C(=O)c2c(NCCNCCO)ccc(NCCNCCO)c21', '0.264 µM (active)'),
  ('CC(=O)O[C@H]1C[C@@H]2CC[C@H]3[C@H]4C[C@H]([N+]5(C)CCCCC5)[C@@H](OC(C)=O)[C@@]4(C)CC[C@@H]3[C@@]2(C)C[C@H]1N1CCCCC1', 'inactive'),
  ('CN1CCCN(C(=O)c2cccc(-c3ccc(C=C4C(=O)Nc5ccc(Cl)cc54)o3)c2)CC1', '5.9 µM (active)'),
  ('C[C@@H](N)C1CCC(C(=O)Nc2ccncc2)CC1 (stereo partly specified)', 'inactive'),
  ('Cc1coc2c1C(=O)C(=O)c1c-2ccc2c(C)cccc12', 'inactive'),
  ('C=C(C)[C@@H]1CC[C@]2(C(=O)O)CC[C@]3(C)[C@H](CC[C@@H]4[C@@]5(C)CC[C@H](O)C(C)(C)[C@@H]5CC[C@]43C)[C@@H]12', 'inactive'),
  ('CCNC(=O)[C@H]1O[C@@H](n2cnc3c(N)nc(NCCc4ccc(CCC(=O)O)cc4)nc32)[C@H](O)[C@H]1O', 'inactive'),
  ('Cc1cccc(Nc2nc(N[C@@H]3CCCC[C@H]3N)ncc2C(N)=O)c1', '3.32 µM (active)'),
  ('COc1ccc(-c2ccc3c(N4CCOCC4)nc(N4C[C@@H](C)O[C@@H](C)C4)nc3n2)cc1CO', '1.05 µM (active)'),
  ('N#CC(=C(N)Sc1ccccc1N)C(C#N)=C(N)Sc1ccccc1N', 'inactive'),
  ('O=c1cc(-c2ccccc2)oc2cc(O)c(O)c(O)c12', '9.35 µM (active)'),
  ('CN(C)CC(C)(C)CNc1nn2c(-c3ccccc3)nnc2cc1C1CCC1', '16.6 µM (active)'),
  ('CN1CCN(C2=Nc3cc(Cl)ccc3Nc3ccccc32)CC1', 'inactive'),
  ('CCC(C)CCCCC(=O)N[C@@H](CCN)C(=O)NC(C(=O)N[C@H](CCN)C(=O)N[C@@H]1CCNC(=O)C([C@@H](C)O)NC(=O)[C@@H](CCN)NC(=O)[C@@H](CCN)NC(=O)[C@@H](CC(C)C)NC(=O)[C@H](Cc2ccccc2)NC(=O)[C@H](CCN)NC1=O)[C@@H](C)O (stereo partly drawn) ({Octanoyl(6-Me)}-[Dab][ξThr(3R)][dDab][dDab][Dab]F[dL][dDab][dDab][ξThr(3R)]; lactam 4-C)', 'inactive'),
  ('C=C1C(=O)OC(CCCCCCCC)C1C(=O)O (stereo unspecified)', 'inactive'),
  ('CN1[C@@H]2CCC[C@@H]1CC(NC(=O)c1nn(C)c3ccccc13)C2 (stereo partly specified)', 'inactive'),
  ('COc1ccc(C2Sc3ccccc3N(CCN(C)C)C(=O)C2OC(C)=O)cc1 (stereo unspecified)', 'inactive'),
  ('C[C@@H](NCCCc1cccc(C(F)(F)F)c1)c1cccc2ccccc12', 'inactive'),
  ('CC(C)(C)OC(=O)CN(Cc1ccc(Cl)cc1)Cc1ccc([N+](=O)[O-])s1', 'inactive'),
  ('O=C(Nc1cccnc1)N1CCC(Cc2cccc(Oc3ccc(C(F)(F)F)cn3)c2)CC1', '3.72 µM (active)'),
  ('Cc1cn(CCN2CCN(c3ccccc3-c3cc(C#N)cc(C(=O)NCCCN4CCCC4)c3)CC2)c2ccccc12', '8.31 µM (active)'),
  ('COC(=O)Nc1ccc(-c2nc(N3CCOCC3)c3cnn(C4CCN(Cc5cccnc5)CC4)c3n2)cc1', '0.469 µM (active)'),
  ('Nc1ncnc2c1ncn2[C@@H]1O[C@@H](CO)[C@H](O)[C@H]1O', 'inactive'),
  ('COc1ccc2[nH]cc(CCNC(C)=O)c2c1', 'inactive'),
  ('COc1cccc2c1C(=O)c1c(O)c3c(c(O)c1C2=O)C[C@@](O)(C(=O)CO)C[C@@H]3O[C@H]1C[C@H](N)[C@@H](O)[C@H](C)O1', '2.96 µM (active)');
